Assay: Potentiometric titration of dispersion pKa of couplers as aqueous dispersions
Format: physicochemical
Conditions: coupler solvent S2, coupler:solvent 1:2, aqueous dispersion, 0.50M potassium counter ion
From the text: Preferred two-equivalent magenta dye-forming couplers for the practice of this invention include those that have pKa values of less than 10.0 when dispersed together with a coupler solvent. Potentiometric titrations were used to measure pKa values for some of the preferred couplers of the invention as aqueous dispersions. […] Table I lists dispersion pKa values measured with 0.50M potassium counter ion.
Measure: pKa (0.5M K+)
// no unit, no text: just the number

Challenge: Dear colleague, I am looking for the recorded pKa (0.5M K+) of the following molecule: CCCCCCCCCCCCCCCCCCNS(=O)(=O)c1ccc(Cl)c(NC2=NN(c3c(Cl)cc(Cl)cc3Cl)C(=O)C2Sc2cc(C(C)C)ccc2C(C)C)c1 (stereo not shown)
Response given: 8.4

Challenge: Dear colleague, I am looking for the recorded pKa (0.5M K+) of the following molecule: CCCCCCCCCCCCNS(=O)(=O)c1ccc(NC2=NN(c3c(Cl)cc(Cl)cc3Cl)C(=O)C2Sc2ccccc2NC(=O)CCCCCCCCCCC)c(Cl)c1 (stereo not shown)
Response given: 7.9

Challenge: Dear colleague, I am looking for the recorded pKa (0.5M K+) of the following molecule: CCCCCCCCCCCCCCCC(=O)Nc1ccc(Cl)c(NC2=NN(c3c(Cl)c(Cl)c(Cl)c(Cl)c3Cl)C(=O)C2Sc2ccccc2NC(=O)OCc2ccccc2)c1 (stereo not shown)
Response given: 7.5

Challenge: Dear colleague, I am looking for the recorded pKa (0.5M K+) of the following molecule: CCCCCCCCCCCCNS(=O)(=O)c1ccc(NC2=NN(c3c(Cl)cc(Cl)cc3Cl)C(=O)C2Sc2cc(C(C)(C)CC(C)(C)C)ccc2OCCCC)c(Cl)c1 (stereo not shown)
Response given: 8.5
